target: the molecule itself; experiment: steric trap, PC bilayers, L/P 1000
assayMetric: Kd (pM)
Give bare numbers, in pM.

Annotate the protein Glycophorin A TM domain (SNGpATM) TMD (protein) GERVQLAHHFSEPEITLIIFGVMAGVIGTILLISYGIRRLIKKSPSDVKPLPSPDTDVPLSSVEIENPETSDQ with its measured Kd.
1.5

Provenance of the data: paper PMC3140635
